Form field: relative integration efficiency (log2) (one value per entry).
test system: VchCAST RNA-guided transposition machinery (E. coli BL21(DE3) host, lacZ target); experiment: relative integration efficiency (T-LR orientation) vs wild-type transposon end (log2 (normalized fold change)); transposon end mutated: right end (5 bp flank + 75 bp right end); higher = more efficient transposition

[
  {
    "seq": "ACATTTGTTGATACAACCATAAAATCATAATTCACCCATAAATTGATAATTATCACACCCACATTTAACTATAACGCTCTGATCATAGTCAGACCAACATTGCTACGACCCGTATTCGCACCGACAC",
    "assayed_system": "VchCAST RNA-guided transposition machinery (E. coli BL21(DE3) host, lacZ target)",
    "relative integration efficiency (log2)": -0.0705
  },
  {
    "seq": "ACATTTGTTGATCCAACCATAAAATGATAATTACACCCATAAATTCATCATTATCACACCCAATTTAACTATAACGCTCTGATCATAGTCAGACCAACATTGCTACGACCCGTATTCGCACCGACAC",
    "assayed_system": "VchCAST RNA-guided transposition machinery (E. coli BL21(DE3) host, lacZ target)",
    "relative integration efficiency (log2)": 1.23
  },
  {
    "seq": "ACATTTGTTGATACAACCATAAAATGATTATTACACCCATAAATTGATTATTATCACACCCATAAATTGATTTTGCCTCTGATCATAGTCAGACCAACATTGCTACGACCCGTATTCGCACCGACAC",
    "assayed_system": "VchCAST RNA-guided transposition machinery (E. coli BL21(DE3) host, lacZ target)",
    "relative integration efficiency (log2)": 0.0804
  },
  {
    "seq": "ACATTTGTTGATACACCCATAAATTGATATTGCCAACCATATATTGATATCTCTCACAACCATAAAATGATAATTACTCTGATCATAGTCAGACCAACATTGCTACGACCCGTATTCGCACCGACAC",
    "assayed_system": "VchCAST RNA-guided transposition machinery (E. coli BL21(DE3) host, lacZ target)",
    "relative integration efficiency (log2)": -0.955
  },
  {
    "seq": "ACATTTGTTGATACAACCATAAAATGATAATATCACCCATAAATTGATAATATTCACACCCATAAATTGATATTCGCTCTGATCATAGTCAGACCAACATTGCTACGACCCGTATTCGCACCGACAC",
    "assayed_system": "VchCAST RNA-guided transposition machinery (E. coli BL21(DE3) host, lacZ target)",
    "relative integration efficiency (log2)": -0.639
  },
  {
    "seq": "ACATTTGTTGATACAACCATAAGTTGATATTTTCAACCATAAAATGATAATTATCACACCCATAAATTGATATTGCCTCTGATCATAGTCAGACCAACATTGCTACGACCCGTATTCGCACCGACAC",
    "assayed_system": "VchCAST RNA-guided transposition machinery (E. coli BL21(DE3) host, lacZ target)",
    "relative integration efficiency (log2)": 0.105
  },
  {
    "seq": "ACATTTGTTGATACCACCATCAAATGATAATTCCACCCCTAAATTGATAATTATCACACCCAATTTAACTATAACGCTCTGATCATAGTCAGACCAACATTGCTACGACCCGTATTCGCACCGACAC",
    "assayed_system": "VchCAST RNA-guided transposition machinery (E. coli BL21(DE3) host, lacZ target)",
    "relative integration efficiency (log2)": -2.31
  },
  {
    "seq": "CAAAATGTAAAAAAAACCATACGTTGATTTTACGAAACCATACGCTGAAATAAAAACAACCATACCTTGAAATTGCTTATGATCATAGTCAGACCAACATTGCTACGACCCGTATTCGCACCGACAC",
    "assayed_system": "VchCAST RNA-guided transposition machinery (E. coli BL21(DE3) host, lacZ target)",
    "relative integration efficiency (log2)": -4.98
  },
  {
    "seq": "ACATTTGTTGATACAACCATAAAAGGATCATTACCCCCATAAATTGATAATTATCCCACCCAATTTAACTATAACGCTCTGATCATAGTCAGACCAACATTGCTACGACCCGTATTCGCACCGACAC",
    "assayed_system": "VchCAST RNA-guided transposition machinery (E. coli BL21(DE3) host, lacZ target)",
    "relative integration efficiency (log2)": 0.912
  },
  {
    "seq": "ACATTTGTTGATACAACCATACCCGGATAATTACACCCATAAATTGATAATTATCACACCCATAAATTGATATTGCCTCTGATCATAGTCAGACCAACATTGCTACGACCCGTATTCGCACCGACAC",
    "assayed_system": "VchCAST RNA-guided transposition machinery (E. coli BL21(DE3) host, lacZ target)",
    "relative integration efficiency (log2)": -4.39
  },
  {
    "seq": "ACATTTGTTGATACAACCATAAAATGATAATTACACCCATAAATTGTAAATTATCACACCCATAAATTGATATTGCCTCTGATCATAGTCAGACCAACATTGCTACGACCCGTATTCGCACCGACAC",
    "assayed_system": "VchCAST RNA-guided transposition machinery (E. coli BL21(DE3) host, lacZ target)",
    "relative integration efficiency (log2)": -0.553
  },
  {
    "seq": "ACATTTGTTGATACAACCATAAAATGATAATTACACCCATAAATTGATAATTATCTGTGCCATAAATTGATATTGCCTCTGATCATAGTCAGACCAACATTGCTACGACCCGTATTCGCACCGACAC",
    "assayed_system": "VchCAST RNA-guided transposition machinery (E. coli BL21(DE3) host, lacZ target)",
    "relative integration efficiency (log2)": 2.04
  },
  {
    "seq": "ACATTTGTTGATACAACCAATAAATGATAATTACACCCATAAATTGATAATTGTGACACCGAATTTAACTATAACGCTCTGATCATAGTCAGACCAACATTGCTACGACCCGTATTCGCACCGACAC",
    "assayed_system": "VchCAST RNA-guided transposition machinery (E. coli BL21(DE3) host, lacZ target)",
    "relative integration efficiency (log2)": 2.09
  },
  {
    "seq": "ACATTTGTTGATACAACCATAAAATGATAATTACACCCATAAATTGATAATTATCACACCCATAAATTGATCGGTAAGAGGATCATAGTCAGACCAACATTGCTACGACCCGTATTCGCACCGACAC",
    "assayed_system": "VchCAST RNA-guided transposition machinery (E. coli BL21(DE3) host, lacZ target)",
    "relative integration efficiency (log2)": 1.33
  },
  {
    "seq": "ACATTTGTTGATACAACCAATAAATGATAATTACACCCATAAATTGATAATGATGACACCGAATTTAACTATAACGCTCTGATCATAGTCAGACCAACATTGCTACGACCCGTATTCGCACCGACAC",
    "assayed_system": "VchCAST RNA-guided transposition machinery (E. coli BL21(DE3) host, lacZ target)",
    "relative integration efficiency (log2)": 1.92
  },
  {
    "seq": "ACATTTGTTGATACAACCATAAAATGATAATTACACCCATAAATTCATTATTATCACACCCAATTTAACTATAACGCTCTGATCATAGTCAGACCAACATTGCTACGACCCGTATTCGCACCGACAC",
    "assayed_system": "VchCAST RNA-guided transposition machinery (E. coli BL21(DE3) host, lacZ target)",
    "relative integration efficiency (log2)": 0.845
  },
  {
    "seq": "ACATTTGTCGATACAACCCTAAAATGATAATTACACCCATAAATTGATAATTATCACCCCCAATTTAACTATAACGCTCTGATCATAGTCAGACCAACATTGCTACGACCCGTATTCGCACCGACAC",
    "assayed_system": "VchCAST RNA-guided transposition machinery (E. coli BL21(DE3) host, lacZ target)",
    "relative integration efficiency (log2)": 0.88
  },
  {
    "seq": "ACATTTGTTGATACAACCATATATTGATATCTCCAACCATAAAGTGATATTTATCACAACCATATATTGATATCTCCTCTGATCATAGTCAGACCAACATTGCTACGACCCGTATTCGCACCGACAC",
    "assayed_system": "VchCAST RNA-guided transposition machinery (E. coli BL21(DE3) host, lacZ target)",
    "relative integration efficiency (log2)": -0.237
  },
  {
    "seq": "ACATTTGTTGATACACCCATAAATTGATAATTACAACCATATATTGATATCTCTCACAACCATAAAATGATAATTACTCTGATCATAGTCAGACCAACATTGCTACGACCCGTATTCGCACCGACAC",
    "assayed_system": "VchCAST RNA-guided transposition machinery (E. coli BL21(DE3) host, lacZ target)",
    "relative integration efficiency (log2)": -0.825
  },
  {
    "seq": "ACATTTGTTGATACAACCATAAAATGATAATTACACCCATAAATTGATAATTATCACACCCATAAATTGATATTGCCAACCATAAAATGATAATTACTCTGATCATAGTCAGACCAAGCACCGACAC",
    "assayed_system": "VchCAST RNA-guided transposition machinery (E. coli BL21(DE3) host, lacZ target)",
    "relative integration efficiency (log2)": -0.138
  }
]
